System name: SIRT1 (Homo sapiens, UniProt Q96EB6)
Sequence (Q96EB6 whole entry): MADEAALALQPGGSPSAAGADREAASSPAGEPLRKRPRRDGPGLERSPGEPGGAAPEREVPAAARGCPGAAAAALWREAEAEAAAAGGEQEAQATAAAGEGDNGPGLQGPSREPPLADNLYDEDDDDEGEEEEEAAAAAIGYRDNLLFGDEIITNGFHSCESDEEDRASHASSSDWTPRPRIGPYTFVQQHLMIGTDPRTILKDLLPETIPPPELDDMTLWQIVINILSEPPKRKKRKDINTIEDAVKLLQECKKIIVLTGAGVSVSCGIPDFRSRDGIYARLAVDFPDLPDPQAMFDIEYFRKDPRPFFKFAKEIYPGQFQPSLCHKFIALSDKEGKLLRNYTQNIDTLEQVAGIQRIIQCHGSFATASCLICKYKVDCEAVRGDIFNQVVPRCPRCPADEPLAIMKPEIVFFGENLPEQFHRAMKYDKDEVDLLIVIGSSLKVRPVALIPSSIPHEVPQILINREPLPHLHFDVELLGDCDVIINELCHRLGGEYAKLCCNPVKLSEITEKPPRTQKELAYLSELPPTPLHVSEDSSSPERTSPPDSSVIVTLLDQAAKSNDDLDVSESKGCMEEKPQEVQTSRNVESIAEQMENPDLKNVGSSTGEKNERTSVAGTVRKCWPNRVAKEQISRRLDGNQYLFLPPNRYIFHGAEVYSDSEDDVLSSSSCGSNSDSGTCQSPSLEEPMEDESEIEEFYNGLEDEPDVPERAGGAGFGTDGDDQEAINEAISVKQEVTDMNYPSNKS
Assay procedure: Mass spectrometry based assay to identify modulators of SIRT1 activity (deacetylation of p53-based acetylated peptide substrate)
Type: biochemical
Conditions used: SIRT1 activation
Attribute measured: EC1.5

Sample records with EC1.5:
Cc1csc(NC(=O)N2CCCc3ccc(-c4cccc(Cl)c4)nc32)n1
A (EC1.5<1.0 μM)
O=C(Nc1ccncc1F)N1CCOc2ccc(-c3cccc(C(F)(F)F)c3)nc21
A (EC1.5<1.0 μM)
Cc1cc(NC(=O)N2CC(C)(C)Oc3ccc(-c4cccc(Cl)c4)nc32)cc(C)n1
A (EC1.5<1.0 μM)
Cc1cncc(NC(=O)N2CCOc3c(C)cc(-c4cccc(C(F)(F)F)c4)nc32)c1
A (EC1.5<1.0 μM)
Cc1cncc(NC(=O)N2CCCOc3ccc(-c4ccnc(C)c4)nc32)c1
B (EC1.5 1-25 μM)

EC1.5 for O=C(Nc1ccncn1)N1CCCOc2ccc(-c3cccc(F)c3)nc21 is B (EC1.5 1-25 μM)

EC1.5 for CN(C)c1cccc(-c2ccc3c(n2)N(C(=O)Nc2cncc(F)c2)CC(C)(C)O3)c1 is A (EC1.5<1.0 μM)

EC1.5 for Cc1cc(-c2cccc(Cl)c2)nc2c1OCCN2C(=O)Nc1ccncc1F is A (EC1.5<1.0 μM)

EC1.5 for Cc1cc(C)nc(NC(=O)N2CCCc3ccc(-c4cccc(Cl)c4)nc32)c1 is A (EC1.5<1.0 μM)

EC1.5 for COc1cccc(-c2ccc3c(n2)N(C(=O)Nc2ccncn2)CCO3)c1 is B (EC1.5 1-25 μM)

EC1.5 for Cc1noc(NC(=O)N2CCOc3ccc(-c4cccc(C(F)(F)F)c4)nc32)c1C is B (EC1.5 1-25 μM)

EC1.5 for Cc1cncc(NC(=O)N2CC(C)(C)Oc3ccc(-c4cccc(CN5CCCC5)c4)nc32)c1 is B (EC1.5 1-25 μM)

EC1.5 for O=C(Nc1cncc(F)c1)N1CCCc2ccc(-c3cccc(F)c3)nc21 is A (EC1.5<1.0 μM)

EC1.5 for Cc1cnc(NC(=O)N2CCN(C)c3ccc(-c4cccc(C(F)(F)F)c4)nc32)s1 is B (EC1.5 1-25 μM)

EC1.5 for Cc1csc(NC(=O)N2CC(C)(C)Oc3ccc(-c4cccc(N5CCOCC5)c4)nc32)n1 is A (EC1.5<1.0 μM)

EC1.5 for Cc1cc(NC(=O)N2CCOc3c(C)cc(-c4cccc(Cl)c4)nc32)cc(C)n1 is A (EC1.5<1.0 μM)
